Test: gradient 5% acetonitrile 3 min, to 50% in 2 min, to 85% in 15 min, held 3 min, 100 µL/min
Conditions: column: Zorbax Extend-C18 2.1 x 50 mm; eluents: water / acetonitrile, 0.1% formic acid
endpoint.label: RP-LC retention time (s)

compound="Cc1cc2c(OCC(CNC(C)(C)C)OC(=O)c3ccccc3)cccc2[nH]1 (stereo not given)" endpoint_label="RP-LC retention time" result_number=799
compound=N#CCn1nc2n(c1=O)CCN(S(=O)(=O)c1cccc3cccnc13)CC2 endpoint_label="RP-LC retention time" result_number=702
compound=COc1ccccc1CCC(=O)N1CCc2cc(-c3ccno3)ccc21 endpoint_label="RP-LC retention time" result_number=1040

[A] COc1ccc(-c2noc(-c3ccc(NC(=O)COc4ccc(Br)cc4)cc3)n2)cc1
[B] CC(C)C(=O)N1CCc2cc(-c3ccc(C(=O)NCCCN4CCN(C)CC4)cc3)ccc21
Q: Compare A and B and name the one whose reported RP-LC retention time is smaller. Select an item and report its label.
A: B
(B: 607 s, A: 1280 s)
